system: Sphaerotheca fuliginea; assay: whole plant or invertebrate; type: in vivo; conditions: Podosphaera fuliginea, in Cucumis sativus, 240 h, read-out: % Efficacy
Measured parameter: pest or weed control at 5 g/ha (%)

>  <Compound>
Cc1cc(C)nc(Nc2ccccc2)n1

>  <Output unit>
%

>  <Readout number>
11

$$$$
>  <Compound>
CC1(C(=O)Nc2ccc(O)c(Cl)c2Cl)CCCCC1

>  <Output unit>
%

>  <Readout number>
10

$$$$
>  <Compound>
CCC1(C(=O)NC(C)c2ccc(Cl)cc2)C(C)C1(Cl)Cl (centres unmarked)

>  <Output unit>
%

>  <Readout number>
10

$$$$
>  <Compound>
O=C(Nc1ccccc1)N(Cc1ccc(Cl)cc1)C1CCCC1

>  <Output unit>
%

>  <Readout number>
30

$$$$
>  <Compound>
C=CC1(C)OC(=O)N(c2cc(Cl)cc(Cl)c2)C1=O (centres unmarked)

>  <Output unit>
%

>  <Readout number>
10

$$$$
>  <Compound>
CC(C)NC(=O)N1CC(=O)N(c2cc(Cl)cc(Cl)c2)C1=O

>  <Output unit>
%

>  <Readout number>
0

$$$$
>  <Compound>
CCCN(CC)CC1COC2(CCC(C(C)(C)C)CC2)O1 (centres unmarked)

>  <Output unit>
%

>  <Readout number>
0

$$$$
>  <Compound>
CC1COC(Cn2cncn2)(c2ccc(Oc3ccc(Cl)cc3)cc2Cl)O1 (centres unmarked)

>  <Output unit>
%

>  <Readout number>
14

$$$$
>  <Compound>
CC12CC1(C)C(=O)N(c1cc(Cl)cc(Cl)c1)C2=O (centres unmarked)

>  <Output unit>
%

>  <Readout number>
0

$$$$
>  <Compound>
CCCCNC(=O)n1c(NC(=O)OC)nc2ccccc21

>  <Output unit>
%

>  <Readout number>
50

$$$$
>  <Compound>
CCNC(=O)NC(=O)C(C#N)=NOC

>  <Output unit>
%

>  <Readout number>
15

$$$$

###

system: Phytophthora infestans; test: whole plant or invertebrate; type: in vivo; settings: Phytophthora infestans, in Solanum lycopersicum, 72 h, read-out: % Efficacy
Catalogue of pest or weed control at 0.5 g/ha values

>  <Compound>
Cc1ccc(C(C)NC(=O)[C@@H](NC(=O)OC(C)C)C(C)C)cc1 (stereo partly shown)

>  <pest or weed control at 0.5 g/ha>
2%

$$$$
>  <Compound>
CSC1=N[C@@](C)(c2ccccc2)C(=O)N1Nc1ccccc1

>  <pest or weed control at 0.5 g/ha>
48%

$$$$
>  <Compound>
CNC(=O)/C(=N/OC)c1ccccc1Oc1ncnc(Oc2cccc(Cl)c2C)c1F

>  <pest or weed control at 0.5 g/ha>
32%

$$$$
>  <Compound>
Cc1ccc(-c2c(Cl)nc(C#N)n2S(=O)(=O)N(C)C)cc1

>  <pest or weed control at 0.5 g/ha>
45%

$$$$

###

Catalogue of pest or weed control at 2.5 g/ha values
tested on: Sphaerotheca fuliginea; test: whole plant or invertebrate; type: in vivo; conditions: Podosphaera fuliginea, in Cucumis sativus, 240 h, read-out: % Efficacy
Measured parameter: pest or weed control at 2.5 g/ha (%)

>  <Compound>
CC(C)(C)C(O)C(Oc1ccc(Cl)cc1)n1cncn1 (stereo not shown) [triadimenol (X) (9)]

>  <Assay target>
Sphaerotheca fuliginea

>  <Readout number>
0

$$$$
>  <Compound>
N#Cc1c[nH]cc1-c1cccc(Cl)c1Cl [fenpiclonil (XXVIII) (27)]

>  <Assay target>
Sphaerotheca fuliginea

>  <Readout number>
0

$$$$
>  <Compound>
N#Cc1c[nH]cc1-c1cccc2c1OC(F)(F)O2 [fludioxonil (XXX) (29), fludioxonil]

>  <Assay target>
Sphaerotheca fuliginea

>  <Readout number>
0

$$$$
>  <Compound>
CC(C)(C)C(O)(CCc1ccc(Cl)cc1)Cn1cncn1 (stereo not shown) [tebuconazole (IV) (3), tebuconazole]

>  <Assay target>
Sphaerotheca fuliginea

>  <Readout number>
0

$$$$
>  <Compound>
N=C(N)NCCCCCCCCNCCCCCCCCNC(=N)N [(XIX) (18), triacetate]

>  <Assay target>
Sphaerotheca fuliginea

>  <Readout number>
43

$$$$
>  <Compound>
O=[N+]([O-])c1cc(C(F)(F)F)c(Cl)c([N+](=O)[O-])c1Nc1ncc(C(F)(F)F)cc1Cl [fluazinam]

>  <Assay target>
Sphaerotheca fuliginea

>  <Readout number>
0

$$$$
>  <Compound>
COC(=O)Nc1nc2ccccc2[nH]1 [carbendazim (XXXI) (30), carbendazim]

>  <Assay target>
Sphaerotheca fuliginea

>  <Readout number>
63

$$$$
